# ASSAY_NAME: Permeability from apical to basolateral side in human Caco2 cells assessed as drug recovery at 2 uM after 10 mins in absence of CES inhibitor BNPP by LC-MS method
# Format: ADME, cell-based
# TEST_SETTINGS: Caco-2, read-out: Drug recovery
READOUT_KIND: recovery at 10 min, 2 µM (%)
One number for each entry, in %.

Input: Specify recovery at 10 min, 2 µM for `C=C/C(C)=C\C[C@]1(C)[C@H](C)C[C@H](O)[C@@]23C(=C[C@H](OC(=O)CCC)C[C@@H]12)[C@@H](OC(=O)CCC)O[C@H]3OC(C)=O` and stop.
Output: 68.4
